Origin of measurements: the OPERA property sets (Mansouri et al. 2018)

A collection of compounds and their measured melting point

Known melting point results, listed for orientation:
item smiles | melting point
Cc1nc2ccccc2o1 | 9.5 °C
CCCCc1ccccn1 | 97 °C
O=C(OCC(=O)N1CCC[C@H]1C(=O)O)c1ccccc1 | 116 °C
CC#CCC(C)C | -92.9 °C
C[C@H]1CC[C@@H]2[C@@H](C)[C@H]3[C@H](C[C@H]4[C@@H]5CC=C6C[C@@H](O)CC[C@]6(C)[C@H]5CC[C@]34C)N2C1 | 218 °C

The compound identified as CCCCCC(=NO)C(C)=O registered its melting point at 59 °C

----------
assay readout: boiling point (°C)
Respond numerically; units are °C and should not be typed.

Known boiling point results, listed for orientation:
item smiles | reading
Fc1ccc(-c2ccc(F)cc2)cc1 | 254
CCCc1ccncc1 | 185
CC=CCC | 36.7

Moving on to the next molecule.
The molecule identified as Nc1c(Br)cc(Br)cc1Br registered its boiling point at 300

----------
A collection of compounds and their measured log10 vapour pressure (mmHg)
The answer should be a number; do not append a unit.

Known log10 vapour pressure (mmHg) results, listed for orientation:
compound | assay readout | reading
Cc1ccc(N)cc1N | log10 vapour pressure (mmHg) | -3.77
O=C(O)c1ccc(O)cc1 | log10 vapour pressure (mmHg) | -6.72
BrC=CBr | log10 vapour pressure (mmHg) | 1.49

The compound identified as CCCCCC(C)O (stereo not drawn) registered its log10 vapour pressure (mmHg) at 0.0899

The compound identified as CC/C=C\C/C=C\C/C=C\CCCCCCCC(=O)O registered its log10 vapour pressure (mmHg) at -6.27

----------
A collection of compounds and their measured log10 BCF
recorded conditions: fish
The answer should be a number; do not append a unit.

Known log10 BCF results, listed for orientation:
compound | log10 BCF
CCN(CC)c1ccccc1 | 2.01
COP(=S)(OC)Oc1ccc([N+](=O)[O-])c(C)c1 | 1.95
CCOP(=S)(OCC)Oc1cc(-c2ccccc2)on1 | 2.61
ClC1=C(Cl)C2(Cl)C=CC1(Cl)C2(Cl)Cl | 3.81
OCc1c(Cl)cccc1Cl | 0.47

Moving on to the next compound.
The compound identified as COc1nn(CSP(=S)(OC)OC)c(=O)s1 registered its log10 BCF at 0.74

----------
recorded conditions: fish
Rule: log10 BCF of 2 or more gives t; anything lower gives f.

compound | class label
CC1CC(C)(C)CC(OOC(C)(C)C)(OOC(C)(C)C)C1 (stereo not given) | t
O=C1c2ccccc2C(=O)c2c(Cl)cccc21 | t

Input: Please check the record Clc1cc2c(c(Cl)c1Cl)Oc1cc(Cl)c(Cl)c(Cl)c1O2 and state if its log10 BCF is at or above 2.
Output: t

Input: Please check the record O=[N+]([O-])c1ccccc1O and state if its log10 BCF is at or above 2.
Output: f

Input: Please check the record ClCBr and state if its log10 BCF is at or above 2.
Output: f

----------
A collection of compounds and their measured boiling point
Respond numerically; units are °C and should not be typed.

Known boiling point results, listed for orientation:
compound | readout unit | boiling point
OCC(O)CO | °C | 290
C[Si]1(C)N[Si](C)(C)N[Si](C)(C)N[Si](C)(C)N1 | °C | 225
CCC(C)OC (stereo not drawn) | °C | 65
CC1=CCC2CC1C2(C)C (racemic) | °C | 156

The compound identified as O=C(O)c1ccccc1Oc1ccccc1 registered its boiling point at 355

The compound identified as CCCNc1ccccc1 registered its boiling point at 222

The compound identified as CC(O)CCl (stereo not drawn) registered its boiling point at 127

The compound identified as FC(F)(F)c1ccccc1Br registered its boiling point at 168
